Data provenance is the supplement of paper PMC12042874.

Recorded measurements of amyloid nucleation score, one per entry
test: amyloid nucleation score (Sup35N fusion, yeast selection) (log enrichment); library NNK2; higher = more nucleation; inactive = no reads after selection;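 further: zero at mode of non-aggregating sequences after 7 days selection at 30°C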

// solved cases for amyloid nucleation score follow
| Substance | amyloid nucleation score |
| --- | --- |
| EMYKQVRFVVIGIIC | 1.21 |
| ERYIRF | 0.187 |
| GDIMKCSRCSATLGEPMKRC | 0.218 |
| HAGVMLSFNIVVPNFTYSKE | 8.45 |
| TSTTYRLYKLGQFLARPANQ | -0.637 |

Could you now look at the following substance, please?
Request: Suppose we examine the substance `MNVYMGFTKVLSAVPRLLYG` ; what amyloid nucleation score value has been reported?
Response: -0.408

====

test: amyloid nucleation score (Sup35N fusion, yeast selection) (log enrichment); library NNK2; higher = more nucleation; inactive = no reads after selection
Measure: amyloid nucleation score

// solved cases for amyloid nucleation score follow
| Substance | amyloid nucleation score |
| --- | --- |
| TGCMSMLFKCAGMCQWWSGG | 6.71 |
| MNSIKMEGVRYNNPNDYTFC | -1.14 |
| IRFGLVWRLKLGFMLGLNSA | 4.98 |
| SFKISDYDECSCFKFYMAPI | 7.08 |
| GLVRSRVWRRASSPGYGECV | 1.3 |
| KYCHLWCEKGMELSALSEAV | 0.001 |
| YTVWGKY | 0.288 |
| MDLRWKSSGRKVNLNRLIQR | 4.65 |

Could you now look at the following substance, please?
Request: Suppose we examine the substance `NWVPLLFDY` ; what amyloid nucleation score value has been reported?
Response: inactive

====

experiment: amyloid nucleation score (Sup35N fusion, yeast selection) (log enrichment); library NNK1; higher = more nucleation; inactive = no reads after selection

| Input sequence | amyloid nucleation score |
| --- | --- |
| SRLVFGHTNRRNSIEQTELL | inactive |
| VMVQANYMSSSSRSAYLSNM | inactive |
| GDSYVRHRMDP | inactive |

====

experiment: amyloid nucleation score (Sup35N fusion, yeast selection) (log enrichment); library NNK3; higher = more nucleation; inactive = no reads after selection
Measure: amyloid nucleation score

| Substance | Result |
| --- | --- |
| VSYISDQGC | inactive |
| SLYVSVLYIYRDY | 1.77 |
| RPFKFMKLFHIMCVVDVYCM | inactive |
| FCYGSFGGLRELYCC | inactive |

Request: Suppose we examine the substance `YTRISTIFGYSAMVQFMPCQ` ; what amyloid nucleation score value has been reported?
Response: inactive

Request: Suppose we examine the substance `LSVLTL` ; what amyloid nucleation score value has been reported?
Response: inactive

Request: Suppose we examine the substance `ASTQRMYMSLLVDGWVTIRL` ; what amyloid nucleation score value has been reported?
Response: inactive

Request: Suppose we examine the substance `FLAVLNLPGCGMDMRNLINL` ; what amyloid nucleation score value has been reported?
Response: inactive

Request: Suppose we examine the substance `SGLDSWY` ; what amyloid nucleation score value has been reported?
Response: inactive

Request: Suppose we examine the substance `LSFYMVKGLKNKI` ; what amyloid nucleation score value has been reported?
Response: inactive

Request: Suppose we examine the substance `MHFLVQSCFTEPRWAACRNV` ; what amyloid nucleation score value has been reported?
Response: inactive

Request: Suppose we examine the substance `YLPAHIYMK` ; what amyloid nucleation score value has been reported?
Response: inactive

Request: Suppose we examine the substance `IRGSHGRWYSTHNCLTCDME` ; what amyloid nucleation score value has been reported?
Response: inactive

Request: Suppose we examine the substance `AACNIN` ; what amyloid nucleation score value has been reported?
Response: inactive

Request: Suppose we examine the substance `MLISERIFQYTCGNYS` ; what amyloid nucleation score value has been reported?
Response: 2.09

Request: Suppose we examine the substance `YLVSIRNNYRCEV` ; what amyloid nucleation score value has been reported?
Response: inactive

Request: Suppose we examine the substance `VERRMTKVWTGARSPGRVFW` ; what amyloid nucleation score value has been reported?
Response: inactive

Request: Suppose we examine the substance `CVVGDPSGVK` ; what amyloid nucleation score value has been reported?
Response: 0.62

Request: Suppose we examine the substance `LSNMMVVPSTSERFFFRAMG` ; what amyloid nucleation score value has been reported?
Response: inactive

Request: Suppose we examine the substance `YSHWMVRAA` ; what amyloid nucleation score value has been reported?
Response: -0.145

Request: Suppose we examine the substance `LFHSAMNGSHFSTVHSNSVI` ; what amyloid nucleation score value has been reported?
Response: inactive

Request: Suppose we examine the substance `FVTFGYQWYRRVAGALGCLE` ; what amyloid nucleation score value has been reported?
Response: 0.37

====

experiment: amyloid nucleation score (Sup35N fusion, yeast selection) (log enrichment); library NNK1; higher = more nucleation; inactive = no reads after selection
Measure: amyloid nucleation score
Just the number, please.

// solved cases for amyloid nucleation score follow
| Substance | amyloid nucleation score |
| --- | --- |
| LMSLRDQRVLALN | -0.533 |
| HSVNACLTGRKGAPLRDKPG | 0.166 |
| LSSFMAAGVSLMCNTFLIWH | 0.729 |
| TTGKFDLFGDYHRGSLYSSV | -0.768 |
| CVSHNVILRK | 2.4 |
| CWASIEVLRRSDYGGFCHSV | 0.826 |
| TSNLHTHGSVFDFWG | 0.732 |
| CYRIDGSYYQLSCSYVYVRV | -0.837 |

Request: Suppose we examine the substance `LAIDNDSWFVETNYNFKFDV` ; what amyloid nucleation score value has been reported?
Response: -0.438

Request: Suppose we examine the substance `KAVRMSNFD` ; what amyloid nucleation score value has been reported?
Response: 0.223

Request: Suppose we examine the substance `VCAEWGAVAPGIGKEYQQRM` ; what amyloid nucleation score value has been reported?
Response: 2.04

====

assay: amyloid nucleation score (Sup35N fusion, yeast selection) (log enrichment); library NNK2; higher = more nucleation; inactive = no reads after selection
Measure: amyloid nucleation score
Just the number, please.

// solved cases for amyloid nucleation score follow
| Input sequence | amyloid nucleation score |
| --- | --- |
| VLLFLSMEVLNRNGMKVPVM | 2.17 |
| YMFNSWYGLSSLWGKSKKMS | -0.538 |
| FFLDYRENISAMLPTTR | -0.833 |
| TLCGFNKGAAIGWCTWNSEK | 4.05 |
| SMRYNTSLRWDWVDQDAHRL | 4.25 |
| LTTVGHSVKLSWRVLSG | 1.9 |
| IIILFQVQCHVVRLSRVHKC | -0.658 |

Could you now look at the following sequence, please?
Request: Suppose we examine the sequence `FDSLAKLFSRIVLLLLLNDR` ; what amyloid nucleation score value has been reported?
Response: -0.032

====

Recorded measurements of amyloid nucleation score, one per entry
test: amyloid nucleation score (Sup35N fusion, yeast selection) (log enrichment); library NNK2; higher = more nucleation; inactive = no reads after selection
Just the number, please.

// solved cases for amyloid nucleation score follow
| Input sequence | Measure | Numeric value |
| --- | --- | --- |
| YCMSYCRSTCYHQEFHGPAC | amyloid nucleation score | 4.34 |
| TDECWIGYFNSSAI | amyloid nucleation score | -0.053 |
| VVFRLRSNRGNVVPRSWAWC | amyloid nucleation score | 1.71 |
| VSWAVGQGWTVRSSPRVCGE | amyloid nucleation score | 0.267 |
| PDIYLYFLKKVMRS | amyloid nucleation score | -1.57 |

Request: Suppose we examine the sequence `VWLNHLTTIYYCNHKLCLLL` ; what amyloid nucleation score value has been reported?
Response: 2.17

====

Recorded measurements of amyloid nucleation score, one per entry
assay: amyloid nucleation score (Sup35N fusion, yeast selection) (log enrichment); library NNK1; higher = more nucleation; inactive = no reads after selection
Just the number, please.

// solved cases for amyloid nucleation score follow
| Substance | Measure | Numeric value |
| --- | --- | --- |
| SVPKLKAEVE | amyloid nucleation score | -0.273 |
| ELTLGLCSYSVRRSCGEGSW | amyloid nucleation score | 6.62 |
| VWLRIM | amyloid nucleation score | -0.957 |
| NMINLMGTKVDMYCRRVRGI | amyloid nucleation score | -1.53 |
| HGLGALYTSVRRARLGFFYC | amyloid nucleation score | 4.23 |

Could you now look at the following substance, please?
Request: Suppose we examine the substance `VVSNTGSFSPVRMR` ; what amyloid nucleation score value has been reported?
Response: -0.117

====

assay: amyloid nucleation score (Sup35N fusion, yeast selection) (log enrichment); library NNK3; higher = more nucleation; inactive = no reads after selection
Measure: amyloid nucleation score

// solved cases for amyloid nucleation score follow
| Substance | Result |
| --- | --- |
| PRCARYYSKLFFCFSDLFLS | 0.233 |
| VLSGNFNTSDFLLMFLITSQ | inactive |
| VTVCSFLLVSRNRNRLRRIY | inactive |
| FSILAFMSDLLS | inactive |
| SCSLRYGMTGWPESKTYTAF | inactive |
| GLAASSTNAFTRHVLNRV | 1.51 |
| KLNFVGLVLRNVGSWEGHGC | inactive |
| MVSDIGWYLLQFTERRSCFY | inactive |

Request: Suppose we examine the substance `RVYLRGRIDFKGTTFGGFEK` ; what amyloid nucleation score value has been reported?
Response: 1.63

Request: Suppose we examine the substance `KALGAEYNTHGTVSGCSLCK` ; what amyloid nucleation score value has been reported?
Response: inactive

Request: Suppose we examine the substance `MSNLCDLHKN` ; what amyloid nucleation score value has been reported?
Response: inactive

Request: Suppose we examine the substance `WLYRNA` ; what amyloid nucleation score value has been reported?
Response: inactive
